FYI, the data here is from paper PMC10397247.

- assayed-system: T1, 4H891-AA
- T1 chain: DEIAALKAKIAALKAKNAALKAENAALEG
- measurement-protocol: two-hybrid library CCmax;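 note: natural log of median RNA to DNA barcode read ratio; higher means stronger binding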
- test-conditions: mean of both orientations
interaction score values, listed per item
measured-attribute: interaction score

> print(dat)
                                     binder  reported.measurement
1  DKIAALKAKIAALEAKNAALEAEIAALEG [4H2865-AA]                  -1.8
2  DKIAALEAKIAALKAENAALEAKIAALEG [4H2389-AA]                -0.959
3  DKNAALEAKIAALEAKNAALEAKIAALEG [4H3381-AA]                 -1.56
4  DENAALKAEIAALEAKNAALKAKIAALEG [4H1597-AA]                 -1.56
